Molecular target: Shiga toxin 2 (Escherichia coli O157:H7) (UniProt P09385+P09386)
Experiment: E. coli 0.157:H7 Shiga Toxin SOP - stx2 screening assay
Assay type: functional
Design: scale not given: direction of the effect not stated beside the values
Details: 30 µM
readoutName: Percent Effect (%)
Give just the numeric value; % need not be written.

Record excerpt, results attached:
| compound | Percent Effect, % |
| --- | --- |
| Cc1cc(C(=O)N2CCc3ncc(CN4CCOCC4)n3CC2)no1 | -7.88 |
| Cc1cc(C)n(C2CCCN(C(=O)c3cc(C4CC4)on3)C2)n1 (stereo unspecified) | -32.5 |
| Cc1cc(C)c(CNC(=O)N2CCCC2c2ccccc2)c(=O)[nH]1 (stereo unspecified) | -21.1 |

Exam item: Param request: Percent Effect | system Shiga toxin 2 (Escherichia coli O157:H7) (UniProt P09385+P09386) | item `COCCN1CC[C@@H]2O[C@@H](COCC(=O)N3CCCC3)CC[C@@H]21`
Marked response: -8.7

Exam item: Param request: Percent Effect | system Shiga toxin 2 (Escherichia coli O157:H7) (UniProt P09385+P09386) | item `COc1nc2c(cc1C(=O)N1C[C@H](N)C[C@H]1C(=O)NC(C)C)CCC2`
Marked response: 12.5

Exam item: Param request: Percent Effect | system Shiga toxin 2 (Escherichia coli O157:H7) (UniProt P09385+P09386) | item COCCCn1c(CN2CCCC(O)C2)cnc1S(=O)(=O)C1CCCC1 (stereo unspecified)
Marked response: -11.3

###

Test system: Trypanosoma cruzi
Test: Trypanosoma cruzi phosphomannomutase and mannose-1-phosphate guanylyltransferase assay
Format: functional
Parameters: scale not given: direction of the effect not stated beside the values
Details: 10 µM
Listed compounds paired with reported Percent Effect
Give just the numeric value; % need not be written.

| compound | readoutValue |
| --- | --- |
| Cc1cc(CN2CC[C@H]3C[C@H](c4nccs4)O[C@@H]3C2)no1 | -1.47 |
| CC[C@H]1N(C)CCC[C@]12CCC(=O)N2Cc1ccncc1 | 1.69 |
| O=C1CC2(CCN(CC3CC3)C2)CN1c1cccnc1 (stereo unspecified) | -5.18 |
| Cc1nc(C)c(CC(=O)N2C[C@@H]3CC[C@H](C2)N(CC2CCC2)C3)c(=O)[nH]1 | 4.2 |
| O=C(C1CC1)N1CCC2(CC1)OCCO2 | -4.38 |
| CC[C@H](N)Cn1nc(-c2cccs2)oc1=O | -1.98 |
| CCOCC(O)CN1CCN(C(=O)Cc2ccc3c(c2)CCO3)CC1 (stereo unspecified) | -3.76 |
| CCOCC(O)CN1CCN(C(=O)Cc2ccc(C)nc2)CC1 (stereo unspecified) | -3.38 |

Exam item: Report measured Percent Effect; entry is `O=C(Cn1ccc2c(Cl)cccc21)N1CCC2(CC1)OCCO2`
Marked response: 1.46

Exam item: Report measured Percent Effect; entry is Cc1n[nH]c2c1C(c1cnn(C)c1)SCC(=O)N2 (stereo unspecified)
Marked response: -2.16

Exam item: Report measured Percent Effect; entry is `c1cncc(CO[C@H]2CC[C@H]3[C@@H]2OCCN3C2CCOCC2)c1`
Marked response: 7.14

###

Listed molecules paired with reported Percent Effect
Target: Shiga toxin 2 (Escherichia coli O157:H7) (UniProt P09385+P09386)
Assay: E. coli 0.157:H7 Shiga Toxin SOP - stx2 screening assay
Format: functional
Design: scale not given: direction of the effect not stated beside the values
Conditions: 30 µM
Give just the numeric value; % need not be written.

Record excerpt, results attached:
| molecule | readoutValue |
| --- | --- |
| O=C1CC(c2cccc(O)c2)c2c(c(C(=O)O)cn2-c2ccccc2)N1 (stereo unspecified) | -12.9 |
| Cc1nn(C)c(N(C)C)c1CNC(C)COc1cccc(F)c1 (stereo unspecified) | -10.4 |
| COc1ccc(S(=O)(=O)N2CCCC3(CCCN3S(C)(=O)=O)C2)cc1 (stereo unspecified) | 0.605 |

Exam item: Report measured Percent Effect; entry is `CCS(=O)(=O)N1CCc2c(CN(C)Cc3ccco3)cncc2C1`
Marked response: -1.96

Exam item: Report measured Percent Effect; entry is O=C(N1CCCCC1)N1CCN(CC(O)c2ccc(F)cc2)CC1 (stereo unspecified)
Marked response: 31.9

Exam item: Report measured Percent Effect; entry is `CCOc1cc(CN(C)CCOC)ccc1OC(F)F`
Marked response: -67.7

###

Listed compounds paired with reported Percent Effect
Biological target: Aspartate--tRNA(Asp/Asn) ligase (Mycobacterium tuberculosis (strain ATCC 25618 / H37Rv)); further: in the data most compounds retested in dose-response had high values
Assay: Assay for Asp RNA synthetase-1 from Mycobacterium tuberculosis
Type: functional
Design: scale not given: direction of the effect not stated beside the values
Settings: 30 µM
Give just the numeric value; % need not be written.

| compound | Percent Effect [%] |
| --- | --- |
| Cc1ncsc1C(=O)NCCSCCCO | -4.34 |
| Cc1n[nH]c(C2CN(C(=O)c3cnc[nH]3)CCO2)n1 (stereo unspecified) | 1.76 |

Exam item: Report measured Percent Effect; entry is `CN(Cc1cn2c(n1)CN(c1ncc(F)cn1)CC2)Cc1ccco1`
Marked response: 2.34

Exam item: Report measured Percent Effect; entry is `CC(C)NC(=O)c1n[nH]c(-n2cnnc2)n1`
Marked response: -4.62

Exam item: Report measured Percent Effect; entry is Cc1cc(CN(C)C(=O)C2CCS(=O)(=O)C2)no1 (stereo unspecified)
Marked response: -3.37

Exam item: Report measured Percent Effect; entry is `CN(Cc1ccsc1)C(=O)CS(=O)(=O)Cc1ccc(Cl)c(Cl)c1`
Marked response: 3.95

###

Listed molecules paired with reported Percent Effect
Species on record: Homo sapiens
Assay: To identify inhibition of the IFN signalling (Jak-Stat) pathway via expression of an eGFP reporter gene under the control of an IFN-stimulated response element (ISRE) containing MxA promoter.
Type: functional
Set-up: scale not given: direction of the effect not stated beside the values
Settings: 30 µM
Give just the numeric value; % need not be written.

Record excerpt, results attached:
| molecule | readoutValue |
| --- | --- |
| c1cncc(N2CCOCC3(CCCN(Cc4cccs4)C3)C2)c1 (centres undefined) | 4.59 |
| CC(C)N1CCc2c(CN(C)Cc3ccco3)cncc2C1 | -0.596 |
| O=C(N[C@H]1CN[C@H]2CCCO[C@H]21)c1cccnc1 | 8.46 |
| O=C(CN1CCN(C(=O)Cc2ccc3c(c2)OCCO3)CC1)NC1CC1 | -0.0292 |

Exam item: Report measured Percent Effect; entry is `COC[C@]12COC[C@H]1CN(Cc1cccnc1OC)C2`
Marked response: -3.88

Exam item: Report measured Percent Effect; entry is `CN1CCC2(CC1)CNC(=O)c1ccccc1O2`
Marked response: 1.44

Exam item: Report measured Percent Effect; entry is c1cc(NC2CC3(CCN(Cc4cc[nH]n4)C3)C2)ncn1 (centres undefined)
Marked response: -4.19

Exam item: Report measured Percent Effect; entry is `c1cncc(OC[C@@H]2CCC[C@@]23CNCCO3)c1`
Marked response: 9.54

Exam item: Report measured Percent Effect; entry is `O=C1C[C@H]2[C@H](CCN2Cc2ccccn2)N1CC1CC1`
Marked response: 12.4

Exam item: Report measured Percent Effect; entry is `c1ccc(OC[C@@H]2CCC[C@@]23CNCCO3)nc1`
Marked response: 24.8

Exam item: Report measured Percent Effect; entry is `NC(=O)CN1CCCN(C(=O)Cc2ccc3c(c2)OCO3)CC1`
Marked response: 12

Exam item: Report measured Percent Effect; entry is `Cc1noc(C)c1CN1CC[C@H]2C[C@@H](c3ccncn3)O[C@@H]2C1`
Marked response: 17.1

Exam item: Report measured Percent Effect; entry is `Cc1cc(CC(=O)N2CCN(CC3CC3)[C@@H]3CS(=O)(=O)C[C@@H]32)ccc1F`
Marked response: -1.41

Exam item: Report measured Percent Effect; entry is `c1ccc(CN2C[C@@H]3OCCN(c4ncccn4)[C@@H]3C2)nc1`
Marked response: 6.09

Exam item: Report measured Percent Effect; entry is Cc1nnc(N2CCCC3(CN(Cc4ccncc4)CCO3)C2)o1 (centres undefined)
Marked response: 6.92

Exam item: Report measured Percent Effect; entry is `CC(C)(C)n1cc(C(=O)NCCCn2ccnc2)c2cccnc21`
Marked response: 29.9

Exam item: Report measured Percent Effect; entry is O=C1OCCC1N1CCN(C(=O)Cc2c[nH]c3ccccc23)CC1 (centres undefined)
Marked response: 9.19

Exam item: Report measured Percent Effect; entry is CCCN1C(=O)CC2(CCCNC2)C1=O (centres undefined)
Marked response: -15.1

Exam item: Report measured Percent Effect; entry is Cc1noc(C)c1CN1CCOC2(CCCN(c3nccs3)C2)C1 (centres undefined)
Marked response: 21.7

Exam item: Report measured Percent Effect; entry is Cc1ccc(CC(=O)N2CCN(CC(O)c3ccccc3)CC2)cn1 (centres undefined)
Marked response: -4.04

Exam item: Report measured Percent Effect; entry is O=C(Cc1cccs1)N1C[C@@H]2OCCN(CC3CCCO3)[C@@H]2C1 (some centres undefined)
Marked response: 15.2

Exam item: Report measured Percent Effect; entry is `CC(C)CN1C[C@H]2C[C@H](C(=O)Nc3cccnc3)[C@@H](C1)O2`
Marked response: -8.69

Exam item: Report measured Percent Effect; entry is COCCN1CCC2(CCCN(c3ncccn3)C2)C1 (centres undefined)
Marked response: -7.02

Exam item: Report measured Percent Effect; entry is `CCn1cc(CN2CCCN(C(=O)Cc3ccc(C)nc3)CC2)cn1`
Marked response: -17.1
